Values from patent US11083725B2

# Test system: NHBE cells
# procedure-details: Biolog metabolic array: substrate use by NHBE cells with or without CA09 infection
# Format: cell-based, human
# experimental-parameters: Virus (CA09-infected, MOI 1) NHBE cells, 2 hr
Rule: 590 nm absorbance normalized to zero hour (substrate use), 2 hr under 2 gives not fulfilled, otherwise fulfilled.

Problem: Has OC[C@@H](O)[C@@H](O)[C@H](O)[C@@H](O)CO [D-Sorbitol] a recorded 590 nm absorbance normalized to zero hour (substrate use), 2 hr greater than or equal to 2?
Result: fulfilled

Problem: Has C[C@@H](O)CC(=O)O [b-Hydroxy-Butyric Acid] a recorded 590 nm absorbance normalized to zero hour (substrate use), 2 hr greater than or equal to 2?
Result: fulfilled

Problem: Has CC(=O)C(=O)O [Pyruvic Acid] a recorded 590 nm absorbance normalized to zero hour (substrate use), 2 hr greater than or equal to 2?
Result: not fulfilled

Problem: Has CC(=O)CC(=O)O [Acetoacetic Acid] a recorded 590 nm absorbance normalized to zero hour (substrate use), 2 hr greater than or equal to 2?
Result: not fulfilled

Problem: Has Cc1cn([C@H]2C[C@H](O)[C@@H](CO)O2)c(=O)[nH]c1=O [Thymidine] a recorded 590 nm absorbance normalized to zero hour (substrate use), 2 hr greater than or equal to 2?
Result: fulfilled

Problem: Has OC[C@H]1O[C@@H](O[C@@H]2[C@@H](CO)OC(O)(CO)[C@H]2O)[C@H](O)[C@@H](O)[C@H]1O (mixture of isomers) [Lactulose] a recorded 590 nm absorbance normalized to zero hour (substrate use), 2 hr greater than or equal to 2?
Result: fulfilled

Problem: Has CC[C@H](O)C(=O)O (racemic) [D,L-a-Hydroxy-Butyric Acid] a recorded 590 nm absorbance normalized to zero hour (substrate use), 2 hr greater than or equal to 2?
Result: not fulfilled

Problem: Has O=C[C@H](O)[C@@H](O)[C@@H](O)[C@H](O)CO [D-Galactose] a recorded 590 nm absorbance normalized to zero hour (substrate use), 2 hr greater than or equal to 2?
Result: not fulfilled

Problem: Has COC(=O)C(C)=O [Methyl Pyruvate] a recorded 590 nm absorbance normalized to zero hour (substrate use), 2 hr greater than or equal to 2?
Result: fulfilled

Problem: Has OCC(O)CO [Glycerol] a recorded 590 nm absorbance normalized to zero hour (substrate use), 2 hr greater than or equal to 2?
Result: fulfilled

Problem: Has NCCCC(=O)O [g-Amino Butyric Acid] a recorded 590 nm absorbance normalized to zero hour (substrate use), 2 hr greater than or equal to 2?
Result: fulfilled

Problem: Has O=C(O)[C@H](O)[C@@H](O)[C@H](O)[C@H](O)CO[C@H]1O[C@H](CO)[C@H](O)[C@H](O)[C@H]1O [Melibionic Acid] a recorded 590 nm absorbance normalized to zero hour (substrate use), 2 hr greater than or equal to 2?
Result: fulfilled

Problem: Has O=c1[nH]cnc2c1ncn2[C@@H]1O[C@H](CO)[C@@H](O)[C@H]1O [Inosine] a recorded 590 nm absorbance normalized to zero hour (substrate use), 2 hr greater than or equal to 2?
Result: not fulfilled

Problem: Has CC(=O)N[C@@H]1C(O)O[C@H](CO)[C@@H](O)[C@@H]1O (stereo partly drawn) [N-Acetyl-D-Mannosamine] a recorded 590 nm absorbance normalized to zero hour (substrate use), 2 hr greater than or equal to 2?
Result: not fulfilled

Problem: Has OC[C@H]1O[C@H](OC[C@H]2O[C@H](O[C@]3(CO)O[C@H](CO)[C@@H](O)[C@@H]3O)[C@H](O)[C@@H](O)[C@@H]2O)[C@H](O)[C@@H](O)[C@H]1O [D-Raffinose] a recorded 590 nm absorbance normalized to zero hour (substrate use), 2 hr greater than or equal to 2?
Result: not fulfilled

Problem: Has CO[C@@H]1OC[C@@H](O)[C@H](O)[C@H]1O [b-Methyl-D-Xyloside] a recorded 590 nm absorbance normalized to zero hour (substrate use), 2 hr greater than or equal to 2?
Result: fulfilled

Problem: Has O=C(O)CC(O)(CC(=O)O)C(=O)O [Citric Acid] a recorded 590 nm absorbance normalized to zero hour (substrate use), 2 hr greater than or equal to 2?
Result: not fulfilled
